Values compiled from patent US20240084003A1.

Molecular target: T1, rhesus monkey CD22-ECD-His protein (rhesus monkey, UniProt H9G1X2 18-686)
T1 construct: extracellular domain; also called monkey CD22 protein
T1 sequence: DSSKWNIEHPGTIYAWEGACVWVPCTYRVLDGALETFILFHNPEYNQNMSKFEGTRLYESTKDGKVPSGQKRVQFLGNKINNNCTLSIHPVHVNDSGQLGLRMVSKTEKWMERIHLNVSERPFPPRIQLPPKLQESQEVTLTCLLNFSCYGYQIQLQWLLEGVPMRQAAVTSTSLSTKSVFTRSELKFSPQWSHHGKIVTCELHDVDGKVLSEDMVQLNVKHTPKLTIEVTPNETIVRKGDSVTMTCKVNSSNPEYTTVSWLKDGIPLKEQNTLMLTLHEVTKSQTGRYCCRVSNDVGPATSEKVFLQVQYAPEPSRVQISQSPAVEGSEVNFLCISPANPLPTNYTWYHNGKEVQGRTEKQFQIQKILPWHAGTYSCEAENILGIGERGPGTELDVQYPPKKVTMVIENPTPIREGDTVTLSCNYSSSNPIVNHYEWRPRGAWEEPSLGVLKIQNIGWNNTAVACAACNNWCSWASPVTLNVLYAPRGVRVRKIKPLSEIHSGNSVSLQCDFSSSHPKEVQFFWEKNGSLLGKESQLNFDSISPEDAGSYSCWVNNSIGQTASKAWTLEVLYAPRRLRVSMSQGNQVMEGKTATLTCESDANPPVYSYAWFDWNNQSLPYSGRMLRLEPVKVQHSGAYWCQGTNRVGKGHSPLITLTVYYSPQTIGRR
Assay: SPR (Biacore), antibody captured on Protein A chip, rhesus CD22 in solution
Overview of reported koff across a group of binders:

binder: F1.17.1 (antibody, human IgG1, kappa, V domains shown, Chimeric IgG1 kappa) VH: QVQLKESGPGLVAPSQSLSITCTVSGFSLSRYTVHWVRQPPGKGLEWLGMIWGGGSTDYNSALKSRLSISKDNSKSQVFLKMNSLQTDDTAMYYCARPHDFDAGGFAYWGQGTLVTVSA VL: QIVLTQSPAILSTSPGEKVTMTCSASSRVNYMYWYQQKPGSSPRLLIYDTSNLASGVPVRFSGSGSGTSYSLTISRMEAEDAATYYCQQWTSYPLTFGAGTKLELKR
unit info: s⁻¹
koff: 0.000531
//
binder: F1.250.16 (antibody, human IgG1, kappa, V domains shown, Chimeric IgG1 kappa) VH: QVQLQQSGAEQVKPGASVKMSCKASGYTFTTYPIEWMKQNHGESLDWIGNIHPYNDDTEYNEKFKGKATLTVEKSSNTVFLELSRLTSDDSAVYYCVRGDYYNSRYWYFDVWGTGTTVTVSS VL: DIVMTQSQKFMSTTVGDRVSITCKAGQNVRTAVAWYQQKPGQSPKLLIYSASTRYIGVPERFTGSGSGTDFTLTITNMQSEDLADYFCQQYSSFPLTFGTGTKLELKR
unit info: s⁻¹
koff: 0.00127
//
binder: F1.200.11 (antibody, human IgG1, kappa, V domains shown, Chimeric IgG1 kappa) VH: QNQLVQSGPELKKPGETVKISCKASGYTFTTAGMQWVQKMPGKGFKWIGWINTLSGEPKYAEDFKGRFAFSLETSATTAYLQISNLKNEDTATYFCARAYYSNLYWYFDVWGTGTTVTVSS VL: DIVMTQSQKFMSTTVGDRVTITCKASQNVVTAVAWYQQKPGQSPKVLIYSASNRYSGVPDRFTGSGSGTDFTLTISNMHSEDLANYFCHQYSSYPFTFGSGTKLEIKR
unit info: s⁻¹
koff: 0.000596
//
binder: HA22-hIgG1 (antibody, V domains shown) VH: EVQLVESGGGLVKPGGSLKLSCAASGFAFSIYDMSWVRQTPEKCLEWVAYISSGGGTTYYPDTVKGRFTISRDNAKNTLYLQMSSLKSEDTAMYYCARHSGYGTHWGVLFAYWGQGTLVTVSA VL: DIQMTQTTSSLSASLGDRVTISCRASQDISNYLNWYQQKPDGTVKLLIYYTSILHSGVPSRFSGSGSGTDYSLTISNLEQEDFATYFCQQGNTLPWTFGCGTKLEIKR
unit info: s⁻¹
koff: 0.000234
